Provenance of the data: patent US6770596B1

Provide the reported Post-emerge Herbicidal Activity SEV (phytotoxicity rating) of each item.
System: green foxtail (Setaria viridis, SEV)
Experiment: Post-emerge test, green foxtail
Assay type: in vivo
Details: 250 g ai/ha, 14 days after application, rating scale 0-100 (0 no damage, 100 complete death)

Take a look at these entries with their results.
- Cn1nc(-c2c(F)cc3c4c2NC(=O)C(c2ccccc2)N4C(=O)CO3)c(Cl)c1OC(F)F (stereo not drawn): 95
- CC1C(=O)Nc2c(-c3nn(C)c(OC(F)F)c3Cl)c(F)cc3c2N1C(=O)CO3 (stereo not drawn): 100
- CCC1C(=O)Nc2c3c(cc(F)c2-n2c(=O)cc(C(F)(F)F)n(C)c2=O)OCC(=O)N31 (stereo not drawn): 60
- Cn1nc(-c2c(F)cc3c4c2NC(=O)CN4C(=O)C(C)(C)O3)c(Cl)c1OC(F)F: 99
- Cn1nc(-c2c(F)cc3c4c2NC(=O)CN4C(=O)CO3)c(Cl)c1OC(F)F: 100

Now examine the next entry.
Post-emerge Herbicidal Activity SEV (phytotoxicity rating) for CC1Oc2cc(F)c(-c3nn(C)c(C(F)(F)F)c3Cl)c3c2N(C1=O)C(C(C)C)C(=O)N3 (mixture of isomers) ?
60

###

Tested on: field corn (Zea mays L., var. Dekalb 535, CORN)
Experiment: Post-emerge test, crop damage field corn
Assay type: in vivo
Settings: post-emerge, 250 g ai/ha, 14 days after application, rating scale 0-100 (0 no damage, 100 complete death)
Please go through the items and note down their Post-emerge crop damage CORN (phytotoxicity rating).
Answers are plain numbers.

Examples from the recorded data:
- CC1Oc2cc(F)c(-c3nn(C)c(C(F)(F)F)c3Cl)c3c2N(C1=O)C(C(C)C)C(=O)N3 (mixture of isomers): 5
- CC1C(=O)Nc2c(-c3ncc(C(F)(F)F)cc3Cl)c(F)cc3c2N1C(=O)CO3 (stereo not drawn): 5
- CCC1C(=O)Nc2c(-c3nn(C)c(OC(F)F)c3Cl)c(F)cc3c2N1C(=O)CO3 (stereo not drawn): 25
- CC(C)C1C(=O)Nc2c(N3C(=O)C4=C(CCCC4)C3=O)c(F)cc3c2N1C(=O)CO3 (stereo not drawn): 0
- C[C@@H]1Oc2cc(F)c(-c3nn(C)c(C(F)(F)F)c3Cl)c3c2N(CC(=O)N3)C1=O: 35

What value of Post-emerge crop damage CORN (phytotoxicity rating) has been reported for the following compound? Cn1nc(-c2c(F)cc3c4c2NC(=O)C(c2ccccc2)N4C(=O)CO3)c(Cl)c1OC(F)F (stereo not drawn)
25

###

Tested on: barnyardgrass (Echinachloa crus-galli, ECC)
Assay: Post-emerge test, barnyardgrass
Type: in vivo
Details: 250 g ai/ha, 14 days after application, rating scale 0-100 (0 no damage, 100 complete death)
Param label: returns true when Post-emerge Herbicidal Activity ECC (phytotoxicity rating) < 70, returns false otherwise, including exact equality.

Use the examples below as a reference point.
* CC1Oc2cc(F)c(-c3nn(C)c(OC(F)F)c3Cl)c3c2N(CC(=O)N3)C1=O (stereo not drawn) | false
* CC1Oc2cc(F)c(-c3nn(C)c(OC(F)F)c3Cl)c3c2N(C1=O)C(C)C(=O)N3 (mixture of isomers) | false
* O=C1Nc2c(-c3ncc(C(F)(F)F)cc3Cl)c(F)cc3c2N(C(=O)CO3)C1c1ccccc1 (stereo not drawn) | true
* CC(C)C1C(=O)Nc2c3c(cc(F)c2-n2c(=O)cc(C(F)(F)F)n(C)c2=O)OCC(=O)N31 (stereo not drawn) | true

State whether 70 exceeds Post-emerge Herbicidal Activity ECC (phytotoxicity rating) recorded for `Cn1nc(-c2c(F)cc3c4c2NC(=O)CN4C(=O)CO3)c(Cl)c1C(F)(F)F` .
false

Just wondering, is Post-emerge Herbicidal Activity ECC (phytotoxicity rating) of Cn1nc(-c2c(F)cc3c4c2NC(=O)C(c2ccccc2)N4C(=O)CO3)c(Cl)c1C(F)(F)F (stereo not drawn) below 70?
true

In the record for `O=C1CN2C(=O)COc3cc(F)c(-c4ncc(C(F)(F)F)cc4Cl)c(c32)N1` , is Post-emerge Herbicidal Activity ECC (phytotoxicity rating) less than 70?
false

For CC1C(=O)Nc2c3c(cc(F)c2-n2c(=O)cc(C(F)(F)F)n(C)c2=O)OCC(=O)N31 (stereo not drawn) , is the recorded Post-emerge Herbicidal Activity ECC (phytotoxicity rating) below the cut-off of 70?
true

Please indicate whether the reported Post-emerge Herbicidal Activity ECC (phytotoxicity rating) of `O=C1CN2C(=O)COc3cc(F)c(-n4nnn(CCCF)c4=O)c(c32)N1` is strictly below 70.
true

Lab note: confirm whether the reported Post-emerge Herbicidal Activity ECC (phytotoxicity rating) for this compound is below 70, equality not counting. compound: `Cn1nc(-c2c(F)cc3c4c2NC(=O)C(C)(C)N4C(=O)CO3)c(Cl)c1C(F)(F)F`
false

Say whether its Post-emerge Herbicidal Activity ECC (phytotoxicity rating) is strictly beneath 70. Entry: `C[C@H]1Oc2cc(F)c(-c3nn(C)c(C(F)(F)F)c3Cl)c3c2N(CC(=O)N3)C1=O`
false

###

Kindly supply the reported Post-emerge crop damage WHEAT (phytotoxicity rating) values for the records listed here.
Tested on: wheat (Triticum aestivum)
Assay: Post-emerge test, crop damage wheat
Type: in vivo
Conditions: post-emerge, 250 g ai/ha, 14 days after application, rating scale 0-100 (0 no damage, 100 complete death)

- CC(C)C1C(=O)Nc2c(N3C(=O)C4=C(CCCC4)C3=O)c(F)cc3c2N1C(=O)CO3 (stereo not drawn) [1-78]: 50
- O=C1CN2C(=O)COc3cc(F)c(-c4ncc(C(F)(F)F)cc4Cl)c(c32)N1 [1-63]: 30

Value lookup for Post-emerge crop damage WHEAT (phytotoxicity rating); key = Cc1nn(-c2c(F)cc3c4c2NC(=O)CN4C(=O)CO3)c(=O)n1C(F)F [1-73]
0

###

System: common ragweed (Ambrosia artemisiifolia L., AML)
Experiment: Pre-emerge test, common ragweed
Type: in vivo
Conditions: 250 g ai/ha, 14 days after application, rating scale 0-100 (0 no damage, 100 complete death)
Provide the reported Pre-emerge Herbicidal Activity AML (phytotoxicity rating) of each item.
Give bare numbers.

* CC1Oc2cc(F)c(-c3nn(C)c(C(F)(F)F)c3Cl)c3c2N(C1=O)C(C)C(=O)N3 (mixture of isomers) [1-51] | 100
* CC1Oc2cc(F)c(-c3nn(C)c(C(F)(F)F)c3Cl)c3c2N(C1=O)C(C)C(=O)N3 (mixture of isomers) [1-50] | 100
* Cc1nn(-c2c(F)cc3c4c2NC(=O)CN4C(=O)CO3)c(=O)n1C(F)F [1-73] | 80
* CC(C)C1C(=O)Nc2c(N3C(=O)C4=C(CCCC4)C3=O)c(F)cc3c2N1C(=O)CO3 (centres unmarked) [1-78] | 0

Batch of 4 compounds: report Pre-emerge Herbicidal Activity AML (phytotoxicity rating) for each.
1. Cn1nc(-c2c(F)cc3c4c2NC(=O)C(C)(C)N4C(=O)CO3)c(Cl)c1OC(F)F [1-27]
2. Cc1nn(-c2c(F)cc3c4c2NC(=O)C(C)N4C(=O)CO3)c(=O)n1C(F)F (centres unmarked) [1-74]
3. Cn1nc(-c2c(F)cc3c4c2NC(=O)CN4C(=O)CO3)c(Cl)c1OC(F)F [1-25]
4. CCC1C(=O)Nc2c(-c3nn(C)c(OC(F)F)c3Cl)c(F)cc3c2N1C(=O)C(C)(C)O3 (centres unmarked) [1-61]

1. 100
2. 80
3. 100
4. 80

###

Test system: green foxtail (Setaria viridis, SEV)
Assay: Post-emerge test, green foxtail
Assay type: in vivo
Conditions: 250 g ai/ha, 14 days after application, rating scale 0-100 (0 no damage, 100 complete death)
Decision: Post-emerge Herbicidal Activity SEV (phytotoxicity rating) compared against 60; not below it gives Condition met, below it gives Condition not met.

Reported Post-emerge Herbicidal Activity SEV (phytotoxicity rating) at or above 60? CCC1C(=O)Nc2c(-c3nn(C)c(OC(F)F)c3Cl)c(F)cc3c2N1C(=O)CO3 (stereo not shown) [1-28]
Condition met

###

Test system: wheat (Triticum aestivum)
Assay: Post-emerge test, crop damage wheat
Format: in vivo
Conditions: post-emerge, 250 g ai/ha, 14 days after application, rating scale 0-100 (0 no damage, 100 complete death)
Assay Readout: Post-emerge crop damage WHEAT (phytotoxicity rating)
One number for each entry.

// below: answered compounds
- CCC1C(=O)Nc2c(-c3ncc(C(F)(F)F)cc3Cl)c(F)cc3c2N1C(=O)CO3 (stereo not shown): 30
- O=C1CN2C(=O)COc3cc(F)c(N4C(=O)C5=C(CCCC5)C4=O)c(c32)N1: 10
- CCC1C(=O)Nc2c3c(cc(F)c2-n2nc(C)n(C(F)F)c2=O)OCC(=O)N31 (stereo not shown): 0
- CC1Oc2cc(F)c(-c3nn(C)c(OC(F)F)c3Cl)c3c2N(CC(=O)N3)C1=O (stereo not shown): 30
- CCC1C(=O)Nc2c3c(cc(F)c2-n2c(=O)cc(C(F)(F)F)n(C)c2=O)OCC(=O)N31 (stereo not shown): 25

Batch lookup, Post-emerge crop damage WHEAT (phytotoxicity rating) per entry.
1. CCC1C(=O)Nc2c(-c3nn(C)c(OC(F)F)c3Cl)c(F)cc3c2N1C(=O)C(C)(C)O3 (stereo not shown)
2. CC1Oc2cc(F)c(-c3nn(C)c(C(F)(F)F)c3Cl)c3c2N(C1=O)C(C(C)C)C(=O)N3 (mixture of isomers)

30
10
